biological target: HLA-A*1101 (human); assay: competition with 125I probe peptide, purified HLA class I; conditions: remark: other sources report otherwise
Non-standard residues stand in square brackets, D forms with d. No end group written: not given here. Abu = CC[C@H](N)C(=O)O
// pIC50 lookup, one value per entry
pIC50 is defined as minus the log10 of a concentration measured in mol/L.

Previously resolved entries follow.
[[record]]
binder = "BVYSPALNK (here or on the partner: B at position 1 is alpha-amino butyric acid (in place of cysteine)) [1371.16 BVYSPALNK p53.124.B1V2]"
parameter = "pIC50"
endpoint_value = 7.89

[[record]]
binder = "SV[Abu]MGGMNK [1371.24 SVBMGGMNK p53.240.V2B3K9]"
parameter = "pIC50"
endpoint_value = 7.77


Now examine the next entry.
Entry SV[Abu]MGGMNRK [1371.25 SVBMGGMNRK p53.240.V2B3K10] has what pIC50?
7.12
